B1: LMNB1 (parent)
chain: LYKEELEQTYHAKLENARLSSEMN

variants of: B1; assay: protein stability index of a GFP-peptide fusion (GPS, HEK-293T) (PSI 1-6); higher = more stable; conditions: c terminus: a fixed tail appended;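 note: lentivirally expressed fusions sorted by FACS into six bins by GFP to DsRed ratio, PSI derived from sequencing read proportions per bin multiplied by bin number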

- Variant Name: "L14W"
  protein stability index: 3.11
- Variant Name: "E4A"
  protein stability index: 2.7
- Variant Name: "E5D"
  protein stability index: 3.01
- Variant Name: "N24L"
  protein stability index: 2.51
- Variant Name: "A12S"
  protein stability index: 4.29
- Variant Name: "R18Y"
  protein stability index: 2.24
- Variant Name: "Y10S"
  protein stability index: 4.49
- Variant Name: "K3D"
  protein stability index: 3.56
- Variant Name: "Y2S"
  protein stability index: 4.12
- Variant Name: "K3G"
  protein stability index: 2.73
- Variant Name: "A17Q"
  protein stability index: 3.72
- Variant Name: "A12E"
  protein stability index: 4.72
- Variant Name: "E7H"
  protein stability index: 2.53
- Variant Name: "S20D"
  protein stability index: 2.71
- Variant Name: "N24W"
  protein stability index: 1.79
- Variant Name: "S20P"
  protein stability index: 3.18
- Variant Name: "L19K"
  protein stability index: 3.35
- Variant Name: "R18I"
  protein stability index: 2.27
- Variant Name: "Y10I"
  protein stability index: 4.17
- Variant Name: "A17M"
  protein stability index: 1.98
- Variant Name: "Y10W"
  protein stability index: 2.63
- Variant Name: "E5Y"
  protein stability index: 3.37
- Variant Name: "N16K"
  protein stability index: 2.98
- Variant Name: "N16Q"
  protein stability index: 3.32
- Variant Name: "A12I"
  protein stability index: 2.87
- Variant Name: "E22Q"
  protein stability index: 2.73
- Variant Name: "H11C"
  protein stability index: 3.73
- Variant Name: "H11S"
  protein stability index: 4.06
- Variant Name: "K3F"
  protein stability index: 1.77
- Variant Name: "L19C"
  protein stability index: 3.36
- Variant Name: "K13W"
  protein stability index: 2.65
- Variant Name: "S21N"
  protein stability index: 2.55
- Variant Name: "L19V"
  protein stability index: 2.88
- Variant Name: "H11M"
  protein stability index: 3.45
- Variant Name: "L14T"
  protein stability index: 4.34
- Variant Name: "M23E"
  protein stability index: 2.89
- Variant Name: "T9H"
  protein stability index: 2.7
- Variant Name: "E22M"
  protein stability index: 2.58
- Variant Name: "E22C"
  protein stability index: 2.83
- Variant Name: "S21M"
  protein stability index: 2.72
- Variant Name: "L1F"
  protein stability index: 2.27
- Variant Name: "L1N"
  protein stability index: 2.98
- Variant Name: "L19P"
  protein stability index: 2.74
- Variant Name: "E15K"
  protein stability index: 2.98
- Variant Name: "N24R"
  protein stability index: 3.11
- Variant Name: "N16S"
  protein stability index: 2.42
- Variant Name: "E22T"
  protein stability index: 2.35
- Variant Name: "S20Y"
  protein stability index: 1.93
- Variant Name: "K3V"
  protein stability index: 1.67
- Variant Name: "H11D"
  protein stability index: 4.95
- Variant Name: "M23R"
  protein stability index: 3.21
- Variant Name: "K13S"
  protein stability index: 2.82
- Variant Name: "E22I"
  protein stability index: 2.74
- Variant Name: "K13V"
  protein stability index: 2.8
- Variant Name: "E7A"
  protein stability index: 2.47
- Variant Name: "E4L"
  protein stability index: 2.17
- Variant Name: "N24C"
  protein stability index: 2.33
- Variant Name: "E15D"
  protein stability index: 3.48
- Variant Name: "A12C"
  protein stability index: 2.09
- Variant Name: "A12N"
  protein stability index: 4.38
- Variant Name: "Q8Y"
  protein stability index: 2.45
- Variant Name: "S20M"
  protein stability index: 2.58
- Variant Name: "N16I"
  protein stability index: 2.35
- Variant Name: "R18C"
  protein stability index: 2.6
- Variant Name: "N24Y"
  protein stability index: 2.27
- Variant Name: "Y2G"
  protein stability index: 4.15
- Variant Name: "K3R"
  protein stability index: 2.9
- Variant Name: "L14Q"
  protein stability index: 4.56
- Variant Name: "L14E"
  protein stability index: 4.64
- Variant Name: "E4T"
  protein stability index: 3.06
- Variant Name: "A12H"
  protein stability index: 3.71
- Variant Name: "R18W"
  protein stability index: 1.08
- Variant Name: "E15F"
  protein stability index: 2.38
- Variant Name: "H11Y"
  protein stability index: 2.48
- Variant Name: "K3L"
  protein stability index: 1.79
- Variant Name: "E4H"
  protein stability index: 2.94
- Variant Name: "Q8L"
  protein stability index: 2.38
- Variant Name: "S21E"
  protein stability index: 3.18
